pIC50 listing for selected compounds.
biological target: UniProt Q16654
Entry type: numeric. Quantity: pIC50, the -log10 of concentration in molar units.

1) O=C(O)C(Cl)Cl [DICHLOROACETIC ACID] ... 3.97
2) Cc1ccc(Cl)cc1S(=O)(=O)Nc1cc(C(=O)O)ccc1Br ... 4.52
3) Cc1ccc(Cl)cc1S(=O)(=O)Nc1cc(Br)cc(C(=O)O)c1 ... 4.63
4) O=C(O)c1ccc(Br)c(NS(=O)(=O)c2cc(Cl)cc(Cl)c2)c1 ... 4.77

Next, consider the following compound.
Query: What does the record list as pIC50 for Cc1ccc(Cl)cc1S(=O)(=O)Nc1cc(C#N)ccc1Br ?
Reply: 4.81

* * *

target: [Pyruvate dehydrogenase (acetyl-transferring)] kinase isozyme 4, mitochondrial (Homo sapiens, UniProt Q16654)
Sequence (Q16654 whole entry): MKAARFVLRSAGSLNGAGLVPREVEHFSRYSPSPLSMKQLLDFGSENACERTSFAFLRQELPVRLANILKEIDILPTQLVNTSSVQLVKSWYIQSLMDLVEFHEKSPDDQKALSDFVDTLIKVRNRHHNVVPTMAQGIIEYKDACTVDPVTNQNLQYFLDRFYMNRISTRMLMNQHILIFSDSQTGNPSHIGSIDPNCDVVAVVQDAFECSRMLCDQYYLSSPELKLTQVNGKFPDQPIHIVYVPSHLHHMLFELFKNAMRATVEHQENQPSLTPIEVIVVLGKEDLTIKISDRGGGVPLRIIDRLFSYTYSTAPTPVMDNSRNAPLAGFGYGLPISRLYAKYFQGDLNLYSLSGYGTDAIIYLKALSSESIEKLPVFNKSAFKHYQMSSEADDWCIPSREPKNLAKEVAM
pIC50: −log10 of the molar value.
# pIC50 per record follows

1) O=C(O)c1ccc(Br)c(NS(=O)(=O)c2ccc(Cl)s2)c1 ... < 4.52
2) CSc1ccc(C(=O)O)cc1NS(=O)(=O)c1cc(Cl)ccc1C ... < 4.52

API: the following record is the query input.
Query: Entry under review: COc1cc(C(=O)O)cc(NS(=O)(=O)c2cc(Cl)ccc2C)c1Cl . Reported pIC50?
Reply: < 4.52
